- systemTested: recombinant human IDE42-1019 (Homo sapiens, UniProt P14735)
- Construct: recombinant human IDE42-1019 (R&D Systems); purchased R&D Systems
- Sequence (P14735 42-1019): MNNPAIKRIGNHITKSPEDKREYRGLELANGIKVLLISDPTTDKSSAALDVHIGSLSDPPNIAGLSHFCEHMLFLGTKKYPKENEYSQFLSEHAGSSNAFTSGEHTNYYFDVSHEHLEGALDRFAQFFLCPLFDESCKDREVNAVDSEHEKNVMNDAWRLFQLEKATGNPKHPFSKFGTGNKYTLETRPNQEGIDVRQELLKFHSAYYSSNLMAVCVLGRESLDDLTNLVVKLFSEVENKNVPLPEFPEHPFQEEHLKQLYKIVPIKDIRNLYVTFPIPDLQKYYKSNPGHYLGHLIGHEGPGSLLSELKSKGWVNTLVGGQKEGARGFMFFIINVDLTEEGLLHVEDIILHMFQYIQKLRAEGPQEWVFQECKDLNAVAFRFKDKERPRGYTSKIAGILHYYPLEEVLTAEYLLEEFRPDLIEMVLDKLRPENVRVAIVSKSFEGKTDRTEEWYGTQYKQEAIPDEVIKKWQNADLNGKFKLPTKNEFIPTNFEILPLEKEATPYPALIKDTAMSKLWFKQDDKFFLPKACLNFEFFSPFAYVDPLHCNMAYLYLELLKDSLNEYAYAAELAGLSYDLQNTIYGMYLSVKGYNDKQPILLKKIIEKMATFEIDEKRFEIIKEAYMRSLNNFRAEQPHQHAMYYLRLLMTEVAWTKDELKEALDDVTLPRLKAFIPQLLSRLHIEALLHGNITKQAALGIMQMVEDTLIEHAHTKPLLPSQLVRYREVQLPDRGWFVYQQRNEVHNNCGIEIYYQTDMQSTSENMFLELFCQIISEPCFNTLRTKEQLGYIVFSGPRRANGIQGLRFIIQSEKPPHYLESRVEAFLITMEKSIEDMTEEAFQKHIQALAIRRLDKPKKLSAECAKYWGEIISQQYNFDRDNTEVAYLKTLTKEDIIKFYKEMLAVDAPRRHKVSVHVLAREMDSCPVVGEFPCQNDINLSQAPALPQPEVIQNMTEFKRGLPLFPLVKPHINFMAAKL
- procedureDetails: Protease assay with fluorogenic peptide substrate Mca-[…](Dnp)-OH
- Type: biochemical
- assayContext: fluorogenic peptide Mca-RPPGFSAFK(Dnp)-OH; apparent IC50 for compounds with submaximal inhibition; read-out: IC50 (μM) Proteolysis
IC50 by entry:
Respond with the bare value in µM.

Solved cases below.
compound	systemTested	IC50 [µM]
COc1ccc(C)cc1-c1ccc([C@@H]2[C@@H](CO)N3CCCCN(S(=O)(=O)c4ccccc4C)C[C@@H]23)cc1	recombinant human IDE42-1019 (Homo sapiens, UniProt P14735)	0.8
Cc1cccc(-c2ccc(C3CCN(S(=O)(=O)c4cccc(C(=O)N(C)C)c4)CC3)cc2)c1C	recombinant human IDE42-1019 (Homo sapiens, UniProt P14735)	1
Cc1cccc(-c2ccc([C@@H]3[C@@H](CN(C)C)N4CCCCN(S(=O)(=O)c5ccccc5C(F)(F)F)C[C@@H]34)cc2)c1C	recombinant human IDE42-1019 (Homo sapiens, UniProt P14735)	0.1

IC50 lookup needed for Cc1ccccc1-c1ccc(C2C3CN(C(=O)C4CCCCC4)CC2N3)cc1 (stereo not shown) , thanks. 2

----------
- systemTested: recombinant human IDE42-1019 (Homo sapiens, UniProt P14735)
- Construct: recombinant human IDE42-1019 (R&D Systems); purchased R&D Systems
- procedureDetails: Protease assay with fluorogenic peptide substrate Mca-[…](Dnp)-OH
- Format: biochemical
- assayContext: fluorogenic peptide Mca-RPPGFSAFK(Dnp)-OH; plateau at high inhibitor concentration; read-out: Imax (%) Proteolysis (inhibition maximum)
- Protocol: The proteases IDE42-1019, recombinant human IDE42-1019 (R&D Systems), neprilysin (R&D), and angiotensin-converting enzyme (R&D) were assayed using the fluorophore/quencher-tagged peptide substrate Mca-[…](Dnp)-OH (SEQ ID NO: 24) (R&D) according to the manufacturer's instructions and using the recommended buffers (fluorophore Mca=(7-methoxycourmarin-4-yl)acetyl and quencher Dnp=2,4-dinitrophenyl). For IDE the recommended buffer is 50 mM Tris pH 7.5, 1 M NaCl. […]
yes (1) means recorded Emax is 60% or above; no (0) means it is below 60%.

Item Cc1ccccc1-c1ccc([C@H]2[C@@H](CO)N3CCCCN(C(=O)Nc4ccc(F)cc4)C[C@@H]23)cc1 with Emax of 60% or above? no (0)

Follow-up entry: Cc1ccccc1S(=O)(=O)N1CCCCN2C(C1)[C@H](c1ccc(-c3cccc(O)c3)cc1)[C@H]2CO (stereo partly drawn) yes (1)

Follow-up entry: Cc1ccccc1-c1ccc(C2C3CN(Cc4cocn4)CC2N3)cc1 (stereo not drawn) yes (1)

----------
- systemTested: recombinant human IDE42-1019 (Homo sapiens)
- Construct: recombinant human IDE42-1019 (R&D Systems); purchased R&D Systems
- procedureDetails: Protease assay with fluorogenic peptide substrate Mca-[…](Dnp)-OH
- Format: biochemical
- assayContext: fluorogenic peptide Mca-RPPGFSAFK(Dnp)-OH; apparent IC50 for compounds with submaximal inhibition; read-out: IC50 (μM) Proteolysis
recordedEndpoint: IC50

Solved cases below.
smi	IC50
COC(=O)N1CCCCN2[C@H](CO)[C@@H](c3ccc(-c4cccc(C)c4)cc3)[C@@H]2C1	> 100 µM
Cc1ccccc1-c1ccc([C@H]2[C@@H](CO)N3CCCCN(S(C)(=O)=O)C[C@@H]23)cc1	> 100 µM

IC50 lookup needed for COc1cccc(C#Cc2ccc([C@@H]3[C@H](CO)N4C(=O)CN(C(C)=O)C[C@@H]34)cc2)c1 , thanks. < 10 µM
